tested on: spontan hypertensiven Ratten; experiment: Systolic blood pressure and heart rate in conscious spontaneously hypertensive rats (tail sphygmomanometry), oral dosing; type: in vivo; details: 50 mg/kg p.o. once daily for 2 days, second day, 2 hours after dosing
Classify as follows. Reported Abnahme des Bludrucks greater than or equal to -40 mm Hg: YES. Reported Abnahme des Bludrucks below: NO.

Exam item: Quick check: does O=C1NCCN1[C@H]1CC[C@@H](NCC(O)COc2ccccc2-n2cccc2)CC1 (some centres unmarked) have Abnahme des Bludrucks greater than or equal to -40 mm Hg?
Marked response: NO

Exam item: Quick check: does C=CCOc1ccccc1OCC(O)CN[C@H]1CC[C@@H](N2CCNC2=O)CC1 (mixture of isomers) have Abnahme des Bludrucks greater than or equal to -40 mm Hg?
Marked response: NO

Exam item: Quick check: does C#CCOc1ccccc1OCC(O)CN[C@H]1CC[C@H](N2CCNC2=O)CC1 (mixture of isomers) have Abnahme des Bludrucks greater than or equal to -40 mm Hg?
Marked response: YES

Exam item: Quick check: does N#Cc1ccccc1OCC(O)CN[C@H]1CC[C@@H](N2CCNC2=O)CC1 (some centres unmarked) have Abnahme des Bludrucks greater than or equal to -40 mm Hg?
Marked response: YES

Exam item: Quick check: does C#CCOc1cccc(OCC(O)CN[C@H]2CC[C@@H](N3CCNC3=O)CC2)c1 (some centres unmarked) have Abnahme des Bludrucks greater than or equal to -40 mm Hg?
Marked response: NO

Exam item: Quick check: does COCCc1ccc(OCC(O)CN[C@H]2CC[C@@H](N3CCNC3=O)CC2)cc1 (some centres unmarked) have Abnahme des Bludrucks greater than or equal to -40 mm Hg?
Marked response: YES

Exam item: Quick check: does N#Cc1ccccc1OCC(O)CN[C@H]1CC[C@H](N2CCNC2=O)CC1 (some centres unmarked) have Abnahme des Bludrucks greater than or equal to -40 mm Hg?
Marked response: YES
